Test system: DU-145 prostate
PROTOCOL_DESCRIPTION: NCI-60 one-dose screen, 48 h (100 = growth as untreated, 0 = no growth, -100 = all killed)
RECORDED_CONDITIONS: 10 µM unless noted
Compounds without any hit were thinned out: in the full panel of roughly 83,000, 20% have a hit. Activity calls are given as the source filed them. Rule for the calls: active = growth percent below 10; inactive = the rest.

{"columns": ["MOLECULE", "growth"],
 "data": [
  ["CC1=CCC(OC(=O)C(C)(O)CCC(O)(C(=O)OC2(C)C=CC(O)(C(C)C)CC2)C(C)C)(C(C)C)CC1 (stereo not given)", "113% (inactive)"],
  ["N#Cc1c(NCc2ccccc2I)sc2c1CCCCC2", "102% (inactive)"],
  ["CC(=O)c1ccc(NS(=O)(=O)c2cccc(C(=O)Nc3ccc(Br)cc3)c2)cc1", "94.6% [25 µM] (inactive)"],
  ["CC(=O)CCC(=O)OCc1cc(=O)c(O)co1", "102% (inactive)"],
  ["COCCCN1CC(O)=C(c2nc(-c3ccc(C)cc3)cs2)C1=N", "102% (inactive)"],
  ["COc1cc(C2C3=C(COC3=O)N(CCO)c3cc4c(cc32)CCC4)cc(OC)c1OC (stereo not given)", "-23.7% (active)"],
  ["COC(=O)/C=C1\\S/C(=N\\NC(=O)c2cc3ccc2/C=C\\c2ccc(cc2)/C=C\\3)N(c2ccccc2)C1=O", "50.9% (inactive)"],
  ["O=C(Nc1ccc(Cl)cc1)c1cc(NCc2cc(O)ccc2O)ccc1O", "100% (inactive)"],
  ["COc1ccc(/C=C2\\COc3ccc(-c4ccccc4)cc3C2=O)c(OC)c1", "102% (inactive)"],
  ["O=[N+]([O-])CC(c1ccccc1)c1c[nH]c2ccccc12 (stereo not given)", "84.1% (inactive)"]
]}
